- SUBJECT OF TEST: 5-HT2AR (Rattus norvegicus)
- Construct: from tissue; host or cells: frontal cortex of male Sprague-Dawley rats
- Sequence (P14842 whole entry): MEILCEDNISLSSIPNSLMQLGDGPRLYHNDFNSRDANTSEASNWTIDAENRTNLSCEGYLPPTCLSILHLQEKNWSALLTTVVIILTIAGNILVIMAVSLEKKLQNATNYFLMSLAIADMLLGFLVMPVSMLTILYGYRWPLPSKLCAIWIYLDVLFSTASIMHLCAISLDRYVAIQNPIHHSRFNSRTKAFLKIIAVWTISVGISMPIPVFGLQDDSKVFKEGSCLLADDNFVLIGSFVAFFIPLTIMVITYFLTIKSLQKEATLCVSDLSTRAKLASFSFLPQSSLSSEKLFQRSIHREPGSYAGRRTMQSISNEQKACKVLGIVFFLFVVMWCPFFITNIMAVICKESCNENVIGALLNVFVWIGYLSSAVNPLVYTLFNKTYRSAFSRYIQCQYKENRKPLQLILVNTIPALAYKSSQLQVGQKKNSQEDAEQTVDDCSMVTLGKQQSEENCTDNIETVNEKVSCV
- ASSAY PROTOCOL: Radioligand binding at 5-HT2A on rat frontal cortex membranes
- APPLIED CONDITIONS: Antilog [pKi (5-HT1AR) – pKi (5-HT2AR)]
ASSAY ENDPOINT: selectivity 5-HT2A/5-HT1A

- Cn1cncc1-c1ccccc1OCCNC[C@@H]1COC(c2ccccc2)(c2ccccc2)O1 [(R)-2]: 74
- c1ccc(C2(c3ccccc3)OC[C@H](CNCCOc3ccccc3-c3ccncc3)O2)cc1 [(S)-1]: 85
- c1ccc(C2(c3ccccc3)OC[C@@H](CNCCOc3ccccc3-c3ccncc3)O2)cc1 [(R)-1]: 355
- Cn1cncc1-c1ccccc1OCCNCC1COC(c2ccccc2)(c2ccccc2)O1 (racemic) [rac-2]: 56
- Cn1cncc1-c1ccccc1OCCNC[C@H]1COC(c2ccccc2)(c2ccccc2)O1 [(S)-2]: 245
- c1ccc(C2(c3ccccc3)OCC(CNCCOc3ccccc3-c3ccncc3)O2)cc1 (racemic) [rac-1]: 123

The origin of these recorded values is paper PMC8016166.
